- system: Dopa decarboxylase (Aromatic L-amino acid decarboxylase), isoform CRA_a (Homo sapiens, UniProt Q53Y41)
- Sequence (Q53Y41 whole entry): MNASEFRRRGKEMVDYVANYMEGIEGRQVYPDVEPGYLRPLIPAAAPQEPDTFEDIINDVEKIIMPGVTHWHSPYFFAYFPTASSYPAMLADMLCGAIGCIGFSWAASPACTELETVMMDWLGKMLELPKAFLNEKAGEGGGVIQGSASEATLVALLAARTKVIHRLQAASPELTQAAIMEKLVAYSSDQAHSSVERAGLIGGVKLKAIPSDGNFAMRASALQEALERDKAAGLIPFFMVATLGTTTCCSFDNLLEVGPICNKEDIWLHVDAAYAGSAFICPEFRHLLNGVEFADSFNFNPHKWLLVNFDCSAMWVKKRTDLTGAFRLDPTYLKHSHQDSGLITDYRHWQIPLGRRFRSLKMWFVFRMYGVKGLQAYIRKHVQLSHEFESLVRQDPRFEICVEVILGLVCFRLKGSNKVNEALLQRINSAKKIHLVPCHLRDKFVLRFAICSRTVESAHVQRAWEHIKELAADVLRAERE
- method.description: DDC-MDH-PEPC-Linked assay
- test.context: pH 8.05; 37 °C
pIC50: −log10 of the molar value.
reported.endpoint: pIC50

1) COc1cc(CC=C(c2cc(O)c(OC)cc2O)c2cc(CCCc3ccc(O)c(OC)c3)c(O)cc2OC)ccc1O [Combrequinone B (6)]
4.67
2) COc1cc(CCCc2cc(C(CCc3ccc(O)c(OC)c3)c3cc(OC)c(OC)cc3O)c(OC)cc2O)ccc1O (stereo not drawn) [Euonydiarylpropane A (1)]
4.00
3) COc1ccc(C(CCc2ccc(O)c(OC)c2)c2cc(CCCc3ccc(O)c(OC)c3)c(O)cc2OC)c(O)c1 (stereo not drawn) [Euonydiarylpropane C (3)]
< 3.70
4) COc1ccc(CCCc2ccc(O)c(OC)c2)c(O)c1
< 3.70
5) C[C@](N)(Cc1ccc(O)c(O)c1)C(=O)O [SMR000059170]
2.92

Batch of 3 compounds: report pIC50 for each.
1. COc1cc(CCCc2ccc(OC)c(O)c2OC)ccc1O [Broussonin F (11)]
2. COc1cc(CCCc2cc(C(CCc3ccc(O)c(OC)c3)c3cc(O)c(OC)cc3OC)c(O)cc2OC)ccc1O (stereo not drawn) [Euonydiarylpropane D (4)]
3. COc1ccc2c(c1)O[C@@H](c1ccc(O)c(O)c1)CC2

1. < 3.70
2. < 3.70
3. < 3.70
